Target: Peroxisome proliferator-activated receptor alpha (Homo sapiens, UniProt Q07869)
Sequence (Q07869 whole entry): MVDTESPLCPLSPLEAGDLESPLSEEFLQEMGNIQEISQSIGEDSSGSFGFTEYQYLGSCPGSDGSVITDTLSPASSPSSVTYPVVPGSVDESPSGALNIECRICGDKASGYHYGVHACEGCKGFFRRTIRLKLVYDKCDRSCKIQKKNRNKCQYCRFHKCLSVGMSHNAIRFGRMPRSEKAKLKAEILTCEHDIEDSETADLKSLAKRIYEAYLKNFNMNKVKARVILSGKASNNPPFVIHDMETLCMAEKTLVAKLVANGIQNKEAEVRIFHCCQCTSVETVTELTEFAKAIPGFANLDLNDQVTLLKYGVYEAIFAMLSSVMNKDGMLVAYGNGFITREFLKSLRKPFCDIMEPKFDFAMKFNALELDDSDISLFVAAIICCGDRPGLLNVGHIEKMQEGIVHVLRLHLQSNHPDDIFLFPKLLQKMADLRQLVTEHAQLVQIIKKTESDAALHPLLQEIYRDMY
Assay: Agonist activity at human recombinant PPARalpha by transactivation of TK-MH100x4-LUC reporter gene in HEK293 cells
Experimental endpoint: pEC50
Answers are plain numbers, as −log10 of the molar value.

[
  {
    "Compound": "CC(C)(Oc1ccc(C(=O)c2ccc(Cl)cc2)cc1)C(=O)O",
    "Tested system": "Peroxisome proliferator-activated receptor alpha (Homo sapiens, UniProt Q07869)",
    "pEC50": 5.04
  }
]

# ---- query compound ----
API: value(readout= pEC50, system= Peroxisome proliferator-activated receptor alpha (Homo sapiens, UniProt Q07869), query= CCC(Oc1ccc(C2(c3ccc(OC(CC)C(=O)O)c(C)c3)CCCCC2)cc1C)C(=O)O (configuration not stated) )
5.46

----------
Target: Bile acid receptor (Homo sapiens)
Sequence (Q96RI1 whole entry): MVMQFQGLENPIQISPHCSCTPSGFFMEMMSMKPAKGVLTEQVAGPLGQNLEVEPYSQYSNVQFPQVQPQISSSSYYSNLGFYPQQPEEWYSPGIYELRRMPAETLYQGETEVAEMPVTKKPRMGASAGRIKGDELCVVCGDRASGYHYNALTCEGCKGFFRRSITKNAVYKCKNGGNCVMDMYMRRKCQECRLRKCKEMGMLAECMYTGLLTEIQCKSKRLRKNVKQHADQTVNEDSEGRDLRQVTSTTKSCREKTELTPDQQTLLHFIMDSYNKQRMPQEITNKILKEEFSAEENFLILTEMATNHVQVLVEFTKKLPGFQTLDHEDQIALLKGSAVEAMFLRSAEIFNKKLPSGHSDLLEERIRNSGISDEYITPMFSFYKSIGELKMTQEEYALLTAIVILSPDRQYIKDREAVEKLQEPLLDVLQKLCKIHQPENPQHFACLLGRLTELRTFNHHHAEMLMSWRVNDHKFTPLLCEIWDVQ
Assay: Agonist activity at human recombinant FXR by transactivation of TK-MH100x4-LUC reporter gene in HEK293 cells
Experimental endpoint: EC50 (µM)
Numbers only, in µM.

Request - read-out EC50 | tested on Bile acid receptor (Homo sapiens) | molecule CCC(CC)(c1ccc(OCC(=O)O)c(C)c1)c1ccc(OCc2c(-c3c(Cl)cccc3Cl)noc2C(C)C)c(C)c1
3.4

Reference for the values: ChEMBL document CHEMBL1148498
